Recorded values, source ChEMBL document CHEMBL1153358.

Each record here notes measured MIC.
- Test system: Cryptococcus neoformans
- PROTOCOL DETAILS: Antifungal activity against Cryptococcus neoformans TIMM 1855
- Format: functional
Field: numeric (mg/L). Do not append units.

# MOLECULE, MIC, mg/L
rows = [
    ("C[C@@H](S[C@H]1CO[C@H](/C=C/S(=O)(=O)c2ccc(F)cc2)OC1)[C@](O)(Cn1cncn1)c1ccc(F)cc1F.O=C(O)/C=C\\C(=O)O", 0.125),
    ("C[C@@H](S[C@H]1CO[C@H](c2ccc(C(=O)Nc3ccc(O)cc3)cc2)OC1)[C@](O)(Cn1cncn1)c1ccc(F)cc1F", 0.25),
    ("C[C@@H](S[C@H]1CO[C@H](c2ccc(C(=O)N3CCN(c4ccccc4)CC3)cc2)OC1)[C@](O)(Cn1cncn1)c1ccc(F)cc1F", 0.016),
    ("C[C@@H](S[C@H]1CO[C@H](/C=C/C(=O)c2ccc(F)cc2)OC1)[C@](O)(Cn1cncn1)c1ccc(F)cc1F.O=C(O)/C=C\\C(=O)O", 0.125),
    ("Cc1ccc(NC(=O)c2ccc([C@H]3OC[C@H](S[C@H](C)[C@](O)(Cn4cncn4)c4ccc(F)cc4F)CO3)cc2)cc1", 0.031),
]

Sure, the documented MIC for C[C@@H](S[C@H]1CO[C@H](c2ccc(C(=O)Nc3ccc(F)cc3)cc2)OC1)[C@](O)(Cn1cncn1)c1ccc(F)cc1F is 0.031

The recorded MIC for CCC(C)n1ncn(-c2ccc(N3CCN(c4ccc(OCC5COC(Cn6cncn6)(c6ccc(Cl)cc6Cl)O5)cc4)CC3)cc2)c1=O (configuration not stated) [ITRACONAZOLE] is 0.25
